This listing pairs compounds with measured pKi.
- target_or_system: PKC delta kinase (Homo sapiens, UniProt Q05655)
- Sequence (Q05655 whole entry): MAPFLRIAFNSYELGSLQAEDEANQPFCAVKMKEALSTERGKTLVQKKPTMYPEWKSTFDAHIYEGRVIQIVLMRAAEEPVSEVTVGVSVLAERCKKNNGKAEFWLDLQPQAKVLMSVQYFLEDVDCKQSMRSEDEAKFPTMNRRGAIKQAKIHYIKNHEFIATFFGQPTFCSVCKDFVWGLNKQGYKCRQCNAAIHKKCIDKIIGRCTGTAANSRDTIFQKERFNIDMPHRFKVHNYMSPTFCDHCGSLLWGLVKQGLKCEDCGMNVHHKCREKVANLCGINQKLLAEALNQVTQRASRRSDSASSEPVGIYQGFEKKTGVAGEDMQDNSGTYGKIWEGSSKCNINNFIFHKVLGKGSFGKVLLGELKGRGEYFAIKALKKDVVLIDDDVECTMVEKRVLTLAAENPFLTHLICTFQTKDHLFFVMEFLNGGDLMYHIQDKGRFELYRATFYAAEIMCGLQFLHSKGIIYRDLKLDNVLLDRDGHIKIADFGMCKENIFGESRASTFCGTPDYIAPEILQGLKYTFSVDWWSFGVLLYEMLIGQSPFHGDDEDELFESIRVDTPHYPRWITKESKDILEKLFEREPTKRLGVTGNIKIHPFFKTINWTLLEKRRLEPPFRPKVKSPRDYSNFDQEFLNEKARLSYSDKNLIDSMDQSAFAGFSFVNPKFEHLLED
- assay_comment: PKC delta coupled-enzyme (NADH consumption) kinase assay
- applied_conditions: 46 nM PKC delta, 150 μM ATP, 30° C., initial rate at 340 nm
pKi: −log10 of the molar value.

Record excerpt, results attached:
| compound | recorded_result |
| --- | --- |
| CC(C)[C@@](C)(O)[C@@H]1CN(c2nc(-c3n[nH]c4ncccc34)c(F)cc2CO)CCN1 | > 8.00 |
| CC(CO)[C@@](C)(O)[C@@H]1CN(c2nc(-c3n[nH]c4ncccc34)c(F)cc2F)CCN1 (stereo partly shown) [Compound 40] | > 7.30 |
| CC(O)(C1CC1)C1CN(c2nc(-c3n[nH]c4ncccc34)c(F)cc2F)CCN1 (stereo not shown) [Compound 4] | > 6.30 |
| CC(C)C(N)[C@H]1CCN(c2nc(-c3n[nH]c4ncccc34)c(C#N)cc2F)C1 (single isomer, unassigned) | < 5.90 |
| CC(C)[C@@](C)(O)[C@@H]1CN(c2nc(-c3n[nH]c4ncccc34)c(F)cc2O)CCN1 | > 8.00 |
| CC[C@H](O)[C@@H]1CN(c2nc(-c3n[nH]c4ncccc34)c(F)cc2F)CCN1 | > 6.30 |
| CC(C)(O)[C@@](C)(O)[C@@H]1CN(c2nc(-c3n[nH]c4ncccc34)c(F)cc2Cl)CCN1 | > 7.30 |
| CC(CO)[C@@](C)(O)[C@@H]1CN(c2nc(-c3n[nH]c4ncccc34)c(F)cc2Cl)CCN1 (stereo partly shown) | < 5.90 |
| CC(C)(F)C(C)(O)C1CN(c2nc(-c3n[nH]c4ncccc34)c(F)cc2F)CCN1 (stereo not shown) [Compound 12] | > 7.30 |
| OC(C1CC1)C1CN(c2nc(-c3n[nH]c4ncccc34)c(F)cc2Cl)CCN1 (stereo not shown) | > 7.30 |

Requested read-out: pKi. Entry: CCC(C)(O)C1CN(c2nc(-c3n[nH]c4ncccc34)c(F)cc2F)CCN1 (stereo not shown)
> 7.30

Fill in: pKi of CC(C)C(N)C1CCN(c2nc(-c3n[nH]c4ncccc34)c(F)cc2F)C1 (stereo not shown) is ___
> 6.30

Given CC(C)[C@@](C)(O)[C@@H]1CN(c2nc(-c3n[nH]c4ncccc34)c(F)cc2Cl)CCN1 , state its recorded pKi.
> 7.30

----------
List of Ki values.
- target_or_system: PKC alpha kinase (Homo sapiens, UniProt P17252)
- assay_comment: PKC alpha coupled-enzyme (NADH consumption) kinase assay
- Assay type: biochemical
- applied_conditions: Ki PKC alpha, 4.5 nM PKC alpha, 130 μM ATP, 100 μM CaCl2, 30° C.

| compound | target_or_system | Ki |
| --- | --- | --- |
| CC(C)C(C)(O)C1CN(c2nc(C3N=Nc4ncccc43)c(F)cc2F)CCN1 (centres unmarked) | PKC alpha kinase (Homo sapiens, UniProt P17252) | < 2800 nM |

# evaluate next
State its Ki on PKC alpha kinase (Homo sapiens, UniProt P17252): CC(C)[C@@](C)(O)[C@@H]1CN(c2nc(-c3n[nH]c4ncccc34)c(F)cc2F)CCN1
< 500 nM

----------
- target_or_system: PKC alpha kinase (Homo sapiens, UniProt P17252)
- assay_comment: PKC alpha coupled-enzyme (NADH consumption) kinase assay
- Assay type: biochemical
- applied_conditions: 4.5 nM PKC alpha, 130 μM ATP, 100 μM CaCl2, 30° C.; read-out: Ki PKC alpha
pKi: −log10 of the molar value.
value_kind: pKi

Guide cases for pKi, answers given:
| compound | recorded_result |
| --- | --- |
| OC(C1CC1)C1CN(c2nc(-c3n[nH]c4ncccc34)c(F)cc2Cl)CCN1 (centres unmarked) | > 5.55 |
| CC(CO)[C@@](C)(O)[C@@H]1CN(c2nc(-c3n[nH]c4ncccc34)c(F)cc2F)CCN1 (some centres unmarked) [Compound 40] | > 6.30 |
| CC(C)(C)C(O)C1CN(c2nc(-c3n[nH]c4ncccc34)c(F)cc2F)CCN1 (centres unmarked) | > 6.30 |
| CC[C@H](O)[C@@H]1CN(c2nc(-c3n[nH]c4ncccc34)c(F)cc2F)CCN1 | < 5.90 |
| CCC(O)C1CN(c2nc(-c3n[nH]c4ncccc34)c(F)cc2Cl)CCN1 (centres unmarked) [Compound 18] | < 5.90 |

What value of pKi has been reported for the following compound? CC(C)[C@@H](O)[C@@H]1CN(c2nc(-c3n[nH]c4ncccc34)c(F)cc2F)CCN1
> 6.30

What measured pKi goes with CC(C)C(N)[C@H]1CCN(c2nc(-c3n[nH]c4ncccc34)c(F)cc2C#N)C1 (some centres unmarked) ?
> 5.55

Entry CC[C@@H](O)[C@@H]1CN(c2nc(-c3n[nH]c4ncccc34)c(F)cc2F)CCN1 : reported pKi = ?
> 5.55

----------
- target_or_system: UniProtKB P17252
- assay_comment: PKC alpha coupled-enzyme (NADH consumption) kinase assay
- Format: biochemical
- applied_conditions: 4.5 nM PKC alpha, 130 μM ATP, 100 μM CaCl2, 30° C.; read-out: Ki PKC alpha
pKi: −log10 of the molar value.
Reported pKi by item:

| molecule | pKi |
| --- | --- |
| CC(C)(F)C(C)(O)C1CN(c2nc(-c3n[nH]c4ncccc34)c(F)cc2F)CCN1 (stereo not shown) [Compound 12] | > 6.30 |
| CCC(C)(O)C1CN(c2nc(-c3n[nH]c4ncccc34)c(F)cc2F)CCN1 (stereo not shown) | > 5.55 |

Please state recorded pKi (tested on UniProtKB P17252) of CC(C)C(N)[C@H]1CCN(c2nc(-c3n[nH]c4ncccc34)c(F)cc2Cl)C1 (stereo partly shown) [Compound 24]
< 5.90

Lab request: please report pKi under test system UniProtKB P17252 for CC(C)(O)[C@@](C)(O)[C@@H]1CN(c2nc(-c3n[nH]c4ncccc34)c(F)cc2Cl)CCN1
> 5.55

----------
Each record here notes measured pKi.
- target_or_system: PKC theta kinase (Homo sapiens)
- Sequence (Q04759 whole entry): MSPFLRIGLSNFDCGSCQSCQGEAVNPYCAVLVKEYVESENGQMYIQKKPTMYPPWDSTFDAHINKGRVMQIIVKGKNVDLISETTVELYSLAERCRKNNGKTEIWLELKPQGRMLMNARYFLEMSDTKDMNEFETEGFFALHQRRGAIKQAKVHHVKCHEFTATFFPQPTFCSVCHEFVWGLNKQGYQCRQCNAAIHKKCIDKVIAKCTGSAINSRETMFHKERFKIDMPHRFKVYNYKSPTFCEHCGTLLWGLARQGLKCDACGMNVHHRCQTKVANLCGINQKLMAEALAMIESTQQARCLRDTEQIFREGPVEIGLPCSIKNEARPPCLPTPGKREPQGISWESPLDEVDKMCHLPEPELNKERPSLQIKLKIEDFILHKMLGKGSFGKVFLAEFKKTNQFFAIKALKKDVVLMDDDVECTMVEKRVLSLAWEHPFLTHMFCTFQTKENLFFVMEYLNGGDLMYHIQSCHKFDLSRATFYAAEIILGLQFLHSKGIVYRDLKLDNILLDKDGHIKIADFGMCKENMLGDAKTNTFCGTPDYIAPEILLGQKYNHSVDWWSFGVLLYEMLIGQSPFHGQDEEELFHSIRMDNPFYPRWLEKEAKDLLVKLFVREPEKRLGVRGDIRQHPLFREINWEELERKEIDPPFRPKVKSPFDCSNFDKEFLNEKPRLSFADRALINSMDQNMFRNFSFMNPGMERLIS
- assay_comment: PKC theta coupled-enzyme (NADH consumption) kinase assay
- Format: biochemical
- applied_conditions: 18 nM PKC theta, 240 μM ATP, 30° C., initial rate at 340 nm; read-out: Ki PKC theta
pKi: −log10 of the molar value.

// below: answered compounds
| compound | target_or_system | value_kind | recorded_result |
| --- | --- | --- | --- |
| OC(C1CC1)C1CN(c2nc(-c3n[nH]c4ncccc34)c(F)cc2F)CCN1 (centres unmarked) [Compound 29] | PKC theta kinase (Homo sapiens) | pKi | > 9.00 |
| CCC(C)(O)C1CN(c2nc(-c3n[nH]c4ncccc34)c(F)cc2F)CCN1 (centres unmarked) [Compound 6] | PKC theta kinase (Homo sapiens) | pKi | > 9.00 |
| CCC(O)C1CN(c2nc(-c3n[nH]c4ncccc34)c(F)cc2Cl)CCN1 (centres unmarked) [Compound 19] | PKC theta kinase (Homo sapiens) | pKi | > 9.00 |
| CC(C)C(N)C1CCN(c2nc(-c3n[nH]c4ncccc34)c(F)cc2F)C1 (centres unmarked) [Compound 22] | PKC theta kinase (Homo sapiens) | pKi | > 7.30 |
| CC(C)[C@@](C)(O)[C@@H]1CN(c2nc(-c3n[nH]c4ncccc34)c(F)cc2O)CCN1 [Compound 32] | PKC theta kinase (Homo sapiens) | pKi | > 9.00 |

Read the next record carefully.
Which pKi is reported for this compound? CC(C)[C@@](C)(O)C1CN(c2nc(-c3n[nH]c4ncccc34)c(C#N)cc2F)CCN1 (some centres unmarked) [Compound 34]
> 7.30

----------
- target_or_system: PKC delta kinase (Homo sapiens)
- assay_comment: PKC delta coupled-enzyme (NADH consumption) kinase assay
- applied_conditions: 46 nM PKC delta, 150 μM ATP, 30° C., initial rate at 340 nm
pKi: −log10 of the molar value.
The entries below come with measured pKi values attached.

# example entries with known answers
| molecule | pKi |
| --- | --- |
| CC(C)C(O)C1CN(c2nc(-c3n[nH]c4ncccc34)c(F)cc2Cl)CCN1 (stereo not shown) [Compound 21] | > 6.30 |
| CC(C)C(N)[C@H]1CCN(c2nc(-c3n[nH]c4ncccc34)c(F)cc2C#N)C1 (stereo partly shown) [Compound 37] | > 6.30 |
| CC(C)[C@@H](O)[C@@H]1CN(c2nc(-c3n[nH]c4ncccc34)c(F)cc2F)CCN1 [Compound 7] | > 7.30 |

Look up pKi for this molecule: CC[C@@H](O)[C@@H]1CN(c2nc(-c3n[nH]c4ncccc34)c(F)cc2F)CCN1 [Compound 8]
> 7.30

Form field: reported pKi of CC(O)(C1CN(c2nc(-c3n[nH]c4ncccc34)c(F)cc2F)CCN1)C(F)(F)F (stereo not shown) [Compound 13]
> 6.30

Could you tell me which pKi is on file for CCC(O)C1CN(c2nc(-c3n[nH]c4ncccc34)c(F)cc2Cl)CCN1 (stereo not shown) [Compound 18] ?
> 6.30

Field request: pKi | item: OC(C1CC1)C1CN(c2nc(-c3n[nH]c4ncccc34)c(F)cc2F)CCN1 (stereo not shown) [Compound 29]
> 7.30

Request the reported pKi associated with CC(C)[C@@](C)(O)[C@@H]1CN(c2nc(-c3n[nH]c4ncccc34)c(C#N)cc2F)CCN1 [Compound 43]
< 5.90

Please give the measured pKi for this molecule: CC(C)(C)C(O)C1CN(c2nc(-c3n[nH]c4ncccc34)c(F)cc2Cl)CCN1 (stereo not shown) [Compound 26]
> 8.00

Endpoint output: pKi of CCC(O)C1CN(c2nc(-c3n[nH]c4ncccc34)c(F)cc2Cl)CCN1 (stereo not shown) [Compound 19] . Value?
> 7.30

So what's the measured pKi for this one? CC(O)(C1CC1)C1CN(c2nc(-c3n[nH]c4ncccc34)c(F)cc2Cl)CCN1 (stereo not shown) [Compound 30]
> 8.00

Param item = CC(C)C(C)(O)C1CN(c2nc(C3N=Nc4ncccc43)c(F)cc2F)CCN1 (stereo not shown) [Compound 3] ; retrieve measured pKi.
> 6.30

Find the recorded pKi belonging to CC(C)(C)C(O)C1CN(c2nc(-c3n[nH]c4ncccc34)c(F)cc2F)CCN1 (stereo not shown) [Compound 27] and report it.
> 8.00

Value lookup for pKi; key = CC(C)C(N)[C@H]1CCN(c2nc(-c3n[nH]c4ncccc34)c(F)cc2Cl)C1 (stereo partly shown) [Compound 23]
> 7.30

Reported pKi, molecule CC(O)(C1CC1)C1CN(c2nc(-c3n[nH]c4ncccc34)c(F)cc2F)CCN1 (stereo not shown) [Compound 5] : ____
> 7.30

Fill in: pKi of CC(C)[C@](C)(O)[C@@H]1CN(c2nc(-c3n[nH]c4ncccc34)c(F)cc2Cl)CCN1 [Compound 38] is ___
> 6.30
